Every entry's value here was drawn from the supplement of paper PMC8728848.

# assay.system: Neu5Ac(a2-3)Gal(b1-4)GlcNAc(b1-2)Man(a1-3)[Neu5Ac(a2-3)Gal(b1-4)GlcNAc(b1-2)Man(a1-6)]Man(b1-4)GlcNAc(b1-4)GlcNAc
# test.protocol: glycan array binding signal (z-score within array); higher = stronger binding
# assay.context: glycan notation: IUPAC condensed, linker removed
The sample as a whole holds a higher share of the strongest signals than the screen did.
Below, each entry is listed alongside its reported glycan array binding signal (z-score).
Could you respond with only the numeric value?

Please review the following examples before continuing.
{"columns": ["binder", "glycan array binding signal (z-score)"],
 "data": [
  ["AFL6 (Aspergillus fumigatus), Q4WKJ1 (protein) MSFHLTAEDIRIEDGHRLVARLRNADGDLQDASIDLNTCLGNDNGHFQWDGVDFSHSAQDVHFAIEGGGQVPVLRAQLANQDGEFQDADVNLSERIENINGEFVFH", 0.029],
  ["Aap arpt (Staphylococcus epidermidis) (protein) NNEAPQMSSTLQAEEGSNAEAPQSEPTKAEEGGNAEAAQSEPTKAEEGGNAEAPQSEPTKAEEGGNAEAAQSEPTKTEEGSNVKAAQSEPTKAEEGSNAEAPQSEPTKTEEGSNAKAAQSEPTKAEEGGNAEAAQSEPTKTEEGSNAEAPQSEPTKAEEGGYAEAPQSEPTKTEEGGNAEAPNVPTIKA", 3]
]}

SJCP1084 (Schistosoma japonicum) (protein) MRIINLVIISTALLLINLLQTKSQANGEDTKNGTPDDPGLTKSTELKVEVQALLKDKKTNMRVKWNENLLDNTKPEYHNLRDEACELLLQIVRSVVPLSQDDGECKDVTFTKYVVGTKDGAVNVKLTITFKDSVAINQKPMDLKLKLENDFKNLQSESTLKATKPTFTVKVEKRLIPISKPQTTPPTTAKNDASKENVGDIGGEDSTVPTAAPATAASANEEKDEGDKDNKDSQHPNVLTSNVNDRNLIIALVALMILAIGVALTAAVKQR yielded glycan array binding signal (z-score) of 0.105
